target: lactoperoxidase (LPO) (Bos taurus, UniProt P80025)
Measured parameter: Ki (mM)
One number for each entry, in mM.

For Nc1nc(N)nc(N)n1 the compound record lists Ki as 15
